- Experiment: In vivo pharmacokinetics in mice, oral administration
- Test parameters: mouse, plasma; male CD1 mice, oral 10 mg/kg
Quantity: Cmax

Given the entry Cc1ccccc1C(=O)Nc1ccc(C(=O)N2CCCC(O)c3cc(Cl)ccc32)c(C)c1 (centres unmarked) [Reference substance 1, Tolvaptan, reference compound] , report its measured Cmax.
1310 ng/mL

Let's switch to this molecule now.
Given the entry O=C(Nc1ccc(C(=O)N2CC[C@@H]3CCN[C@H]3c3cc(Cl)ccc32)cn1)c1ccccc1C(F)(F)F (single isomer, unassigned) [Compound 10A] , report its measured Cmax.
833 ng/mL

---

- Experiment: In vivo pharmacokinetics in mice, oral administration
- Test parameters: mouse, plasma; male CD1 mice, oral 10 mg/kg
Quantity: half-life (h)
Please reply with the bare figure in h and do not write the unit itself.

Given the entry O=C(Nc1ccc(C(=O)N2CC[C@@H]3CCN[C@H]3c3cc(Cl)ccc32)cn1)c1ccccc1C(F)(F)F (single isomer, unassigned) [Compound 10A] , report its measured half-life.
4.44

Let's switch to this compound now.
Given the entry Cc1ccccc1C(=O)Nc1ccc(C(=O)N2CCCC(O)c3cc(Cl)ccc32)c(C)c1 (centres unmarked) [Reference substance 1, Tolvaptan, reference compound] , report its measured half-life.
1.58

---

- System: human V2R (Homo sapiens)
- Construct: purchased Perkinelmer, USA
- Sequence (P30518 whole entry): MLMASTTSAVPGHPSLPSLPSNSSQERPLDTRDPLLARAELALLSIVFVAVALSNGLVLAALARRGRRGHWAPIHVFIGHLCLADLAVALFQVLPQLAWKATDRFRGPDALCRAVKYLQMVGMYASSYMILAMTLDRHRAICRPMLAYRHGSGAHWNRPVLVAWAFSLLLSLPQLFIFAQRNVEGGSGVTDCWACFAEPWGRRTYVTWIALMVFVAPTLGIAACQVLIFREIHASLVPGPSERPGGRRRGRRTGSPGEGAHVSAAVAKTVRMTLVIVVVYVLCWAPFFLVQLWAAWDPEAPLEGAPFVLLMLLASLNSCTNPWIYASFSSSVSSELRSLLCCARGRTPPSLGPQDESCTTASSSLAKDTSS
- Experiment: Competitive isotope ligand binding, V2 receptor
- Test parameters: Binding affinity V2R, N = 1, isotope-labeled vasopressin 1 nM, experiment 1
- Method: The cells with high expression of human V1a receptor were amplified, collected, washed twice with PBS, resuspended with PBS containing a protease inhibitor, homogenized with a homogenizer at 15000 r/min to break the cells, and centrifuged at 4° C. and 3000 r/min for 15 minutes. […] Y=Bottom+(Top−Bottom)/(1+10^((X−Log IC50))), wherein: Y is the reading value of the liquid scintillation counter, and X is the logarithmic value of the compound concentration.
Quantity: Ki (nM)
Please reply with the bare figure in nM and do not write the unit itself.

Given the entry O=C(Nc1ccc(C(=O)N2CC[C@@H]3CCN[C@H]3c3cc(Cl)ccc32)cn1)c1ccccc1C(F)(F)F (single isomer, unassigned) [Compound 10A] , report its measured Ki.
2.1

---

- System: human V1aR (Homo sapiens, UniProt P37288)
- Construct: expressed in transfected cells; membranes prepared in house
- Sequence (P37288 whole entry): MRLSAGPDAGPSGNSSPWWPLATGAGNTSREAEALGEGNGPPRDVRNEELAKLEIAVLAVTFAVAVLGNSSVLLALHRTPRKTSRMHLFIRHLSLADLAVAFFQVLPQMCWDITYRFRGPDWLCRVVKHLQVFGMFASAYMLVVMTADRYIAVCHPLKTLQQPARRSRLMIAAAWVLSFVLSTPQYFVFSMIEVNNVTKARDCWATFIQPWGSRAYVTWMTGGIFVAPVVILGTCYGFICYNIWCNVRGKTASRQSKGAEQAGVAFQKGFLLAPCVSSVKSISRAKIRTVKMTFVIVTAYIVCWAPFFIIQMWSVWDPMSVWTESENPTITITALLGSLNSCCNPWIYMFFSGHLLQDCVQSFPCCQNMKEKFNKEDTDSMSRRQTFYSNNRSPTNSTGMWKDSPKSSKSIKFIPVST
- Experiment: Competitive isotope ligand binding, V1a receptor
- Test parameters: Binding affinity V1aR, N = 1, isotope-labeled vasopressin […], experiment 1
Quantity: Ki (nM)
Please reply with the bare figure in nM and do not write the unit itself.

Given the entry O=C(Nc1ccc(C(=O)N2CC[C@@H]3CCN[C@H]3c3cc(Cl)ccc32)cn1)c1ccccc1C(F)(F)F (single isomer, unassigned) [Compound 10A] , report its measured Ki.
19.7

---

- System: human V1aR (Homo sapiens, UniProt P37288)
- Construct: expressed in transfected cells; membranes prepared in house
- Experiment: Competitive isotope ligand binding, V1a receptor
- Test parameters: Binding affinity V1aR, N = 2, isotope-labeled vasopressin […], experiment 2
Quantity: pKi
The value called pKi is obtained by taking minus log10 of the concentration in mol/L.

Given the entry O=C(Nc1ccc(C(=O)N2CC[C@@H]3CCN[C@H]3c3cc(Cl)ccc32)cn1)c1ccccc1C(F)(F)F (single isomer, unassigned) [Compound 10A] , report its measured pKi.
7.95

---

- System: human V1aR (Homo sapiens, UniProt P37288)
- Construct: expressed in transfected cells; membranes prepared in house
- Experiment: Competitive isotope ligand binding, V1a receptor
- Test parameters: isotope-labeled vasopressin […], mean ± spread; read-out: Binding affinity V1aR, mean of the two experiments
Quantity: pKi
The value called pKi is obtained by taking minus log10 of the concentration in mol/L.

Given the entry O=C(Nc1ccc(C(=O)N2CC[C@@H]3CCN[C@H]3c3cc(Cl)ccc32)cn1)c1ccccc1C(F)(F)F (single isomer, unassigned) [Compound 10A] , report its measured pKi.
7.81
